Test system: Vero E6 infected with SARS-CoV-2
Test: inhibition of SARS-CoV-2 cytopathic effect; higher = more antiviral protection, active = above 15
Conditions: 8.33 nM; 48 h
metric: inhibition of SARS-CoV-2 cytopathic effect (%)
Numbers only, in %.

• CSCC[C@H](NC(=O)[C@H](Cc1ccccc1)NC(=O)CNC(=O)CNC(=O)[C@@H](N)Cc1ccc(O)cc1)C(=O)O = -1.23
• N=C(N)c1ccc(-c2ccc(-c3ccc(C(=N)N)cc3)o2)cc1 = 0.26
• O=C(NC1CCNCC1)c1n[nH]cc1NC(=O)c1c(Cl)cccc1Cl = -2.6
• Nc1cccc2c(=O)[nH][nH]c(=O)c12 [monosodium-alpha-luminol] = 0.14
• CC1=NN(c2ccccc2)C(=O)C1 = 0.66

Please give inhibition of SARS-CoV-2 cytopathic effect, item by item, for the list that follows.
1. CSC[C@H](N)C(=O)O
2. O=C1c2cccc(O)c2C(=O)c2c(O)cc(CO)cc21
3. CN(C(=O)Cc1ccccc1)[C@H](CN1CCCC1)c1ccccc1
4. O=C(O)Cc1cccnc1C(=O)O
5. O=C(O)C1CN(Cc2ccc(-c3nc4cc(Cc5ccccc5F)ccc4s3)c(F)c2)C1

a:
1: 3.63; 2: -0.39; 3: -0.14; 4: -1.17; 5: 1.1

Please give inhibition of SARS-CoV-2 cytopathic effect, item by item, for the list that follows.
1. CCNC(=O)Nc1ccc(-c2nc3c(c(N4CCOC[C@@H]4C)n2)CCN(C2COC2)C3)cc1
2. CCOc1ccc(-n2c([C@@H](C)N(Cc3cccnc3)C(=O)Cc3ccc(OC(F)(F)F)cc3)nc3ncccc3c2=O)cc1 (racemic)
3. O=C(NCCCCCCNC(=O)ON=C1CCCCC1)ON=C1CCCCC1
4. Cc1ncc(CN2CC=C(c3ccccc3)CC2)c(N)n1

a:
[-0.06, 2.23, 0.56, 0.52]

---

System: Vero E6 infected with SARS-CoV-2
Assay: SARS-CoV-2 infection rate relative to infected DMSO; higher = more infection, active = 60 or less
Conditions: 24 h
metric: SARS-CoV-2 infection rate (%)
Numbers only, in %.

* COc1ccc(Cl)cc1C(=O)NCCc1ccc(C(=O)O)cc1 [meglitinide] (10 µM) | 102
* O=C(/C=C/c1cccc(F)c1)NC1CC1 [cinflumide] (10 µM) | 110

Please give SARS-CoV-2 infection rate, item by item, for the list that follows.
1. CC(=O)N1CCN(CCOc2ccc(C3CCN(C4=Nn5c(nnc5C(F)(F)F)CC4)CC3)cc2)CC1 (0.833333 µM)
2. CCN(CC)CCCCN1c2ccccc2Oc2ccc(Cl)cc21 (0.833333 µM)
3. C[C@@H]1O[C@@H](O[C@H]2[C@H](Oc3cc(O)c4c(c3)O[C@H](c3ccc(O)cc3)CC4=O)O[C@H](CO)[C@@H](O)[C@@H]2O)[C@H](O)[C@H](O)[C@H]1O [Naringin (Naringoside)] (10 µM)
4. CCOc1ccc(Cc2nccc3cc(OCC)c(OCC)cc23)cc1OCC [ethaverine] (10 µM)
5. CNC(=O)Oc1ccccc1OC(C)C [propoxur] (10 µM)
6. Cc1ccc(S(=O)(=O)NC(=O)NN2CCCCCC2)cc1 [tolazamide] (10 µM)

a:
98.5
93
106
100
118
100
